Target: Human Recombinant Matriptase 2 (Homo sapiens, UniProt Q8IU80)
Construct: purchased Enzo Life Sciences (an in-house preparation was also used) ALX-201-752-1
Sequence (Q8IU80 1-811): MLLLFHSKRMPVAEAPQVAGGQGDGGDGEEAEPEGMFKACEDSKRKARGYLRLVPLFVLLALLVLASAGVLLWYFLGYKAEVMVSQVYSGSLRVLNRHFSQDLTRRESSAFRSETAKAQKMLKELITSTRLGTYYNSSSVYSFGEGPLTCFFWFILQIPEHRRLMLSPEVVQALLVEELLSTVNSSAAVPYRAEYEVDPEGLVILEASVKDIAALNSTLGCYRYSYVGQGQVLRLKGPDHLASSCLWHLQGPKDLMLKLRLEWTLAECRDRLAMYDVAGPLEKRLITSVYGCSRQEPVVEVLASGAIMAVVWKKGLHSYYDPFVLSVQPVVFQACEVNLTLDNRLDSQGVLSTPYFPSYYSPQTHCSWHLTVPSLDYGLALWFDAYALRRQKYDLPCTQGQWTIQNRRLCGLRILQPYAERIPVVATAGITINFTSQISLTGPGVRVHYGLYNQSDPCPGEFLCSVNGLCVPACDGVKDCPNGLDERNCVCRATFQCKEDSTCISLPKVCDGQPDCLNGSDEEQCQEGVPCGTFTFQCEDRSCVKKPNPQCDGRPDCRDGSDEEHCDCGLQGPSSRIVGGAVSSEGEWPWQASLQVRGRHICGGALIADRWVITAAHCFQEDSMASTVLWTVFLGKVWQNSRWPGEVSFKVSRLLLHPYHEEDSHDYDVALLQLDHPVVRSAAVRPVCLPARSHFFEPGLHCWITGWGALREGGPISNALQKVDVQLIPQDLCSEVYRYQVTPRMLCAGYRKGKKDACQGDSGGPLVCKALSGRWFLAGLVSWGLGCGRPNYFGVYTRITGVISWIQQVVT
Experiment: Matriptase 2 fluorescence based inhibition assay, Method B (50 mM TRIS pH 7.5, 150 mM NaCl, 0.01% gelatin)
Assay type: biochemical
Settings: 1 uM compound; Assay Used = B; read-out: Mar-2 % inhibition at 1 uM
Documented inhibition at 1 µM across a set of compounds

Observe how each entry below is paired with its result.
What inhibition at 1 µM value was documented for this compound, N=C(N)c1ccc2c(C=O)c(C(=O)N[C@H]3CC[C@H](N)CC3)n(Cc3cccc4ccccc34)c2c1 [Compound I-515] ?
25 to 50%

What inhibition at 1 µM value was documented for this compound, CC(C)(C)OC(=O)NC(=N)c1ccc2cc(C(=O)NCc3ccc(CO)cc3)n(Cc3cccc4ccccc34)c2c1 [Compound I-421] ?
0 to 25%

What inhibition at 1 µM value was documented for this compound, N=C(N)c1ccc2cc(C(=O)O[C@H]3CC[C@H](N)CC3)n(Cc3cccc4ccccc34)c2c1 [Compound I-485] ?
75 to 100%

What inhibition at 1 µM value was documented for this compound, N=C(N)c1ccc2cc(C(=O)N3CCN(C(=O)CN)CC3)n(Cc3cccc4ccccc34)c2c1 [Compound I-431] ?
50 to 75%

What inhibition at 1 µM value was documented for this compound, CC(N)c1ccc2cc(C(=O)N[C@H]3CC[C@H](N)CC3)n(Cc3cccc4ccccc34)c2c1 (some centres unmarked) [Compound I-580] ?
0 to 25%

More entries:
What inhibition at 1 µM value was documented for this compound, CC(C)(C)OC(=O)NC(=N)c1ccc2cc(C(=O)N3CC[C@H](O)C3)n(Cc3cccc4ccccc34)c2c1 (stereo in doubt) [Compound I-424] ?
0 to 25%

What inhibition at 1 µM value was documented for this compound, COCc1c(C(=O)N[C@H]2CC[C@H](N)CC2)n(Cc2cccc3ccccc23)c2cc(C(=N)N)ccc12 [Compound I-517] ?
50 to 75%

What inhibition at 1 µM value was documented for this compound, N=C(N)c1ccc2nc(C(=O)N[C@H]3CC[C@H](N)CC3)n(Cc3cccc4ccccc34)c2c1 [Compound I-542] ?
75 to 100%

What inhibition at 1 µM value was documented for this compound, N=C(N)c1ccc2cc(C(=O)N[C@H]3CC[C@H](O)CC3)n(Cc3cccc4ccccc34)c2c1 [Compound I-440] ?
75 to 100%

What inhibition at 1 µM value was documented for this compound, N=C(N)c1ccc2cc(NC(=O)[C@H]3CC[C@H](N)CC3)n(Cc3cccc4ccccc34)c2c1 [Compound I-529] ?
50 to 75%

What inhibition at 1 µM value was documented for this compound, COC(=O)NCCOC(=O)c1cc2ccc(C(=N)NC(=O)OCC(C)C)cc2n1Cc1cc(Oc2ncccn2)cc2ccccc12 [Compound I-550] ?
0 to 25%

What inhibition at 1 µM value was documented for this compound, COC(=O)NCCOC(=O)c1cc2ccc(C(=N)N)cc2n1Cc1cc(Oc2ncccn2)cc2ccccc12 [Compound I-583] ?
75 to 100%

What inhibition at 1 µM value was documented for this compound, CC(C)(C)OC(=O)NC(=N)c1ccc2cc(C(=O)NC3CCC(NC(=O)OC(C)(C)C)CC3)n(Cc3cccc(Cl)c3Cl)c2c1 (centres unmarked) [Compound I-493] ?
0 to 25%

What inhibition at 1 µM value was documented for this compound, NCc1ccc2cc(C(=O)NC3CCNCC3)n(Cc3cccc4ccccc34)c2c1 [Compound I-533] ?
25 to 50%
